# Test: Permeability of the compound at pH 7.4 by PAMPA assay
# Format: ADME
# Assay Conditions: read-out: permeability
Outcome label depends on Papp relative to 50 ×10⁻⁶ cm/s: at/above gives Criterion met, below gives Criterion not met.

These recorded examples may help you get a feel for the data.
Cc1nc2c(-c3ccc4c(c3)CCN(c3ncnc5c3oc3ccccc35)C4)c(N3CCC(C)(C)CC3)c([C@H](OC(C)(C)C)C(=O)O)c(C)n2n1
Criterion met
Cc1c([C@H](OC(C)(C)C)C(=O)O)c(N2CCC(C)(C)CC2)c(-c2ccc3c(c2)CCN(c2ncnc4c2oc2ccccc24)C3)c2ncnn12
Criterion not met
Cc1c([C@H](OC(C)(C)C)C(=O)O)c(N2CCC(C)(C)CC2)c(-c2ccc(OCCc3ccc(F)cc3)cc2)c2nccn12
Criterion not met
Cc1c([C@H](OC(C)(C)C)C(=O)O)c(N2CCC(C)(C)CC2)c(-c2ccc3c(c2)CCN(c2ncnc4c2oc2ccccc24)C3)c2nccn12
Criterion met
CCc1cn2c(C)c([C@H](OC(C)(C)C)C(=O)O)c(N3CCC(C)(C)CC3)c(-c3ccc(OCCc4ccc(F)cc4)cc3)c2n1
Criterion not met

Does Cc1c([C@H](OC(C)(C)C)C(=O)O)c(N2CCC(C)(C)CC2)c(-c2ccc3c(c2)CCN(c2ncnc4c2oc2ccccc24)C3)c2cnnn12 have a reported Papp of at least 50 ×10⁻⁶ cm/s? Criterion met

###

# Test: AUC (0 to infinity) in Sprague-Dawley rat at 5 mg/kg, po
# Format: ADME, organism-based
# Parameters: time infinity, dose 5 mg/kg, route po
# Assay Conditions: in vivo
Lab note: anything with AUC(0-inf) at or over 20 µM·h counts as true (1); the rest go in false (0).

Answered cases to consult:
Cc1c([C@H](OC(C)(C)C)C(=O)O)c(N2CCC(C)(C)CC2)c(-c2ccc3c(c2)CCN(c2ncnc4c2oc2ccccc24)C3)c2cnnn12
true (1)
Cc1cn2c(C)c([C@H](OC(C)(C)C)C(=O)O)c(N3CCC(C)(C)CC3)c(-c3ccc(OCCc4ccc(F)cc4)cc3)c2n1
false (0)
Cc1c([C@H](OC(C)(C)C)C(=O)O)c(N2CCC(C)(C)CC2)c(-c2ccc(OCCc3ccc(F)cc3)cc2)c2nccn12
false (0)
Cc1c([C@H](OC(C)(C)C)C(=O)O)c(N2CCC(C)(C)CC2)c(-c2ccc3c(c2)CCN(c2ncnc4c2oc2ccccc24)C3)c2ncnn12
true (1)

Kindly determine if AUC(0-inf) recorded for Cc1nc2c(-c3ccc(OCCc4ccc(F)cc4)cc3)c(N3CCC(C)(C)CC3)c([C@H](OC(C)(C)C)C(=O)O)c(C)n2n1 is above or exactly 20 µM·h. false (0)

Reported AUC(0-inf) at or above 20 µM·h? Cc1nc2c(-c3ccc4c(c3)CCN(c3ncnc5c3oc3ccccc35)C4)c(N3CCC(C)(C)CC3)c([C@H](OC(C)(C)C)C(=O)O)c(C)n2n1 true (1)

Hi, just wondering whether Cc1c([C@H](OC(C)(C)C)C(=O)O)c(N2CCC(C)(C)CC2)c(-c2ccc3c(c2)CCN(c2ncnc4c2oc2ccccc24)C3)c2nccn12 shows AUC(0-inf) of 20 µM·h or higher. false (0)

###

Listed below: pEC50 values for each entry.
# Tested on: Human immunodeficiency virus 1
# Test: Antiviral activity against recombinant HIV1 NLRep-Rluc harbouring polymorphic 124T/125T integrase infected in human MT2 cells assessed as inhibition of virus growth in presence of fetal bovine serum by measuring luciferase activity after 5 days by Luciferase Assay
# Type: functional, organism-based
# Assay Conditions: Human immunodeficiency virus 1, NLRep-Rluc, MT2, 120 h
Here pEC50 is given on a logarithmic scale as minus log10 of the concentration in mol/L.

Worked examples follow.
Cc1c([C@H](OC(C)(C)C)C(=O)O)c(N2CCC(C)(C)CC2)c(-c2ccc(OCCc3ccc(F)cc3)cc2)c2ccnn12
7.89
Cc1c([C@H](OC(C)(C)C)C(=O)O)c(N2CCC(C)(C)CC2)c(-c2ccc(OCCc3ccc(F)cc3)cc2)c2cncn12
7.84
Cc1c([C@H](OC(C)(C)C)C(=O)O)c(N2CCC(C)(C)CC2)c(-c2ccc(OCCc3ccc(F)cc3)cc2)c2nc(CC(C)C)cn12
8.92

Per the reported Human immunodeficiency virus 1 data, CCc1cn2c(C)c([C@H](OC(C)(C)C)C(=O)O)c(N3CCC(C)(C)CC3)c(-c3ccc(OCCc4ccc(F)cc4)cc3)c2n1 has pEC50 of 9.00

Field pEC50 (Human immunodeficiency virus 1), entry Cc1c([C@H](OC(C)(C)C)C(=O)O)c(N2CCC(C)(C)CC2)c(-c2ccc(OCCc3ccc(F)cc3)cc2)c2nccn12 : 8.96

Assay Human immunodeficiency virus 1, sample Cc1c([C@H](OC(C)(C)C)C(=O)O)c(N2CCC(C)(C)CC2)c(-c2ccc(OCCc3ccc(F)cc3)cc2)c2nc(C(C)C)cn12 , pEC50 read: 8.92

Measured on Human immunodeficiency virus 1, Cc1c([C@H](OC(C)(C)C)C(=O)O)c(N2CCC(C)(C)CC2)c(-c2ccc(OCCc3ccc(F)cc3)cc2)c2ncnn12 has a documented pEC50 of 8.62

Human immunodeficiency virus 1 pEC50 of Cc1c([C@H](OC(C)(C)C)C(=O)O)c(N2CCC(C)(C)CC2)c(-c2ccc3c(c2)CCN(c2ncnc4c2oc2ccccc24)C3)c2nccn12 is 8.54

So the reported pEC50 for Cc1cn2c(C)c([C@H](OC(C)(C)C)C(=O)O)c(N3CCC(C)(C)CC3)c(-c3ccc(OCCc4ccc(F)cc4)cc3)c2n1 , on Human immunodeficiency virus 1, turned out to be 9.10

// molecule Cc1nc2c(-c3ccc(OCCc4ccc(F)cc4)cc3)c(N3CCC(C)(C)CC3)c([C@H](OC(C)(C)C)C(=O)O)c(C)n2n1 , assay Human immunodeficiency virus 1, pEC50 value: 8.89

Sample Cc1c([C@H](OC(C)(C)C)C(=O)O)c(N2CCC(C)(C)CC2)c(-c2ccc(OCCc3ccc(F)cc3)cc2)c2nc(C(F)(F)F)cn12 , system: Human immunodeficiency virus 1. Its pEC50 is 8.28

Field pEC50 (system: Human immunodeficiency virus 1) for entry Cc1c([C@H](OC(C)(C)C)C(=O)O)c(N2CCC(C)(C)CC2)c(-c2ccc(OCCc3ccc(F)cc3)cc2)c2cnnn12 = 8.24

Value sought: pEC50, system Human immunodeficiency virus 1, item Cc1nc2c(-c3ccc4c(c3)CCN(Cc3c(C)cccc3Cl)C4)c(N3CCC(C)(C)CC3)c([C@H](OC(C)(C)C)C(=O)O)c(C)n2n1 . Result: 8.22

Log: Human immunodeficiency virus 1, molecule Cc1nc2c(-c3ccc4c(c3)CCN(c3ncnc5c3oc3ccccc35)C4)c(N3CCC(C)(C)CC3)c([C@H](OC(C)(C)C)C(=O)O)c(C)n2n1 , pEC50 = 8.41

###

AUC(0-inf) values for the compounds below.
# Test: AUC (0 to infinity) in Sprague-Dawley rat at 5 mg/kg, po
# Assay type: ADME, organism-based
# Set-up: time infinity, dose 5 mg/kg, route po
# Assay Conditions: in vivo
Form entry: value (µM·h) — number only.

# example entries with known answers
Cc1nc2c(-c3ccc4c(c3)CCN(Cc3c(C)cccc3Cl)C4)c(N3CCC(C)(C)CC3)c([C@H](OC(C)(C)C)C(=O)O)c(C)n2n1
3.21
Cc1nc(C)c([C@H](OC(C)(C)C)C(=O)O)c(N2CCC(C)(C)CC2)c1-c1ccc(OCCc2ccc(F)cc2)cc1
14

We now examine a further compound.
Query Cc1c([C@H](OC(C)(C)C)C(=O)O)c(N2CCC(C)(C)CC2)c(-c2ccc(OCCc3ccc(F)cc3)cc2)c2ncnn12 yields AUC(0-inf) of 3.59

###

# Test: Metabolic stability in Sprague-Dawley rat assessed as clearance at 1 mg/kg, iv
# Format: ADME, organism-based
# Assay Conditions: in vivo
# Lookup of reported clearance keyed by entry
Give your result in mL/min/kg as a bare value.

Cc1c([C@H](OC(C)(C)C)C(=O)O)c(N2CCC(C)(C)CC2)c(-c2ccc3c(c2)CCN(c2ncnc4c2oc2ccccc24)C3)c2cnnn12
1.9
Cc1nc2c(-c3ccc(OCCc4ccc(F)cc4)cc3)c(N3CCC(C)(C)CC3)c([C@H](OC(C)(C)C)C(=O)O)c(C)n2n1
20.1
Cc1nc2c(-c3ccc4c(c3)CCN(c3ncnc5c3oc3ccccc35)C4)c(N3CCC(C)(C)CC3)c([C@H](OC(C)(C)C)C(=O)O)c(C)n2n1
2.8

Okay, next one:
Record summary for Cc1nc2c(-c3ccc4c(c3)CCN(Cc3c(C)cccc3Cl)C4)c(N3CCC(C)(C)CC3)c([C@H](OC(C)(C)C)C(=O)O)c(C)n2n1 : reported clearance = 13

###

# Test: Metabolic stability in Sprague-Dawley rat assessed as clearance at 1 mg/kg, iv
# Assay type: ADME, organism-based
# Assay Conditions: in vivo
Measurement Type: clearance (mL/min/kg)
Answer with a number only, understood to be in mL/min/kg.

For orientation, consider the following solved cases.
Cc1cn2c(C)c([C@H](OC(C)(C)C)C(=O)O)c(N3CCC(C)(C)CC3)c(-c3ccc(OCCc4ccc(F)cc4)cc3)c2n1
40.7
Cc1c([C@H](OC(C)(C)C)C(=O)O)c(N2CCC(C)(C)CC2)c(-c2ccc(OCCc3ccc(F)cc3)cc2)c2nc(CC(C)C)cn12
44.6
Cc1c([C@H](OC(C)(C)C)C(=O)O)c(N2CCC(C)(C)CC2)c(-c2ccc(OCCc3ccc(F)cc3)cc2)c2ncnn12
11.9
Cc1c([C@H](OC(C)(C)C)C(=O)O)c(N2CCC(C)(C)CC2)c(-c2ccc(OCCc3ccc(F)cc3)cc2)c2nccn12
12.5
Cc1c([C@H](OC(C)(C)C)C(=O)O)c(N2CCC(C)(C)CC2)c(-c2ccc3c(c2)CCN(c2ncnc4c2oc2ccccc24)C3)c2ncnn12
1.5

The value of clearance measured for the molecule CCc1cn2c(C)c([C@H](OC(C)(C)C)C(=O)O)c(N3CCC(C)(C)CC3)c(-c3ccc(OCCc4ccc(F)cc4)cc3)c2n1 turned out to be 57.3

// clearance lookup, molecule = Cc1c([C@H](OC(C)(C)C)C(=O)O)c(N2CCC(C)(C)CC2)c(-c2ccc3c(c2)CCN(c2ncnc4c2oc2ccccc24)C3)c2nccn12 , result: 1
